Form field: activity at 10 µM (one value per entry).
biological target: GATA4–NKX2-5 transcriptional synergy (Mus musculus, UniProt P42582+Q08369); construct: expressed in transfected cells; host or cells: COS-1; assay: GATA4–NKX2-5 transcriptional synergy luciferase reporter assay (3xNKE reporter, COS-1 cells); type: cell-based; settings: COS-1; compound 10 µM; luciferase reporter activity; spread in separate STDEV column
Sequence (Q08369 whole entry): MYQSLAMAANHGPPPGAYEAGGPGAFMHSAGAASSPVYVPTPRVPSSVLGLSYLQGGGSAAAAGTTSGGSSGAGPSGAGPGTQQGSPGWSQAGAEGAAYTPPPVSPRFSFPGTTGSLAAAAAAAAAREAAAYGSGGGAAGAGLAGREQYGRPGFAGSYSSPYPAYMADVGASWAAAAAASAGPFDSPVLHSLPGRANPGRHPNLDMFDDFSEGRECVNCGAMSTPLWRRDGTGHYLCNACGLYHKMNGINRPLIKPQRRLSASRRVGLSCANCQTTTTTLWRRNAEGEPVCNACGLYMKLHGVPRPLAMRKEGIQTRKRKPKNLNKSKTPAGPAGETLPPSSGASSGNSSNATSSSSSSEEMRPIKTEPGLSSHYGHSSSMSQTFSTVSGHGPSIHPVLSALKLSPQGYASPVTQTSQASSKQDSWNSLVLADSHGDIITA
Sequence (P42582 whole entry): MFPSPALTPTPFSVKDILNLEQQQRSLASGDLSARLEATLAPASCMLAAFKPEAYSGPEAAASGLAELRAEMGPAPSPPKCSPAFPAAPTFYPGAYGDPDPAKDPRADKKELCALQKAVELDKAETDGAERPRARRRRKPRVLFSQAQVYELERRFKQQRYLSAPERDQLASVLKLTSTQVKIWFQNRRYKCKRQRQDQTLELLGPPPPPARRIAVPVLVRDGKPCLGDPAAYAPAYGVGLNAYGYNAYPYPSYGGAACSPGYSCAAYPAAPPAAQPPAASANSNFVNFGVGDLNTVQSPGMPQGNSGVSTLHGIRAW
Response body: numeric value in %, unit text excluded.

Some solved entries appear below for comparison.
{"compound": "Cc1onc(-c2ccccc2)c1C(=O)Nc1ccc(C(=O)OCCN(C)C)cc1 [Compound 10d]", "units.text": "%", "activity at 10 µM": 115}
{"compound": "Cc1onc(-c2ccccc2)c1C(=O)Nc1ccc(C(=O)OCCC#N)cc1", "units.text": "%", "activity at 10 µM": 104}
{"compound": "CCN(CC)c1ccc(NC(=O)C2CCCC2)cc1", "units.text": "%", "activity at 10 µM": 115}
{"compound": "CC(=O)COC(=O)c1ccc(NC(=O)c2c(-c3ccccc3)noc2C)cc1", "units.text": "%", "activity at 10 µM": 98.5}

Complete the entry with activity at 10 µM for CCN(CC)c1ccc(NC(=O)c2c[nH]nc2C2CCCCC2)cc1
70.7
